- targetDesc: T1, GST-WWP1.3
- T1 construct: Coated on polystyrene plates; also called WWP1 WW domain 3; not shown: glutathione S-transferase (GST) fusion partner
- T1 sequence (chain, as listed by the source): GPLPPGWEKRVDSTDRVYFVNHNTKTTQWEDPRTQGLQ
- experimentNotes: TRF (DELFIA) plate assay, GST-WW domain coated at 30 µg/mL, titrated with biotinylated peptide
Where no end group is shown, it is not given here.
measurementLabel: binding result

# binder, experimentalResult
data = [
    ("GPESPPPPYSRLSP (not fully specified (N-terminus); also: biotin with C6 linker, end not given here, also called Smad 6 peptide) [Smad6 PY motif peptide GPESPPPPYSRLSP]", "binds"),
]
